protocol-details: RP, Waters ACQUITY UPLC HSS C18, 100 × 2.1 mm, 1.7 µm, 40 °C, 0.35 mL/min, estimated dead time 0.63 min; A: water + 0.1% formic acid; B: methanol + 0.1% formic acid; gradient (min/%B) 0/0.5 4/70 4.5/98 5.4/98
condition: stereoisomer not certain
measured-parameter: LC retention time (min)

compound=Nc1ccc(C(=O)O)c(O)c1 observed_result=2.69
compound="CC(=O)NC(Cc1ccccc1)C(=O)O (stereo not drawn)" observed_result=3.99
compound=O=[N+]([O-])c1ccc(O)cc1 observed_result=4.18
compound=COc1cccc(OC)c1C(=O)O observed_result=3.65
compound=NCCc1c[nH]c2ccc(O)cc12 observed_result=1.9
compound=O=C(O)c1cc(=O)[nH]c(=O)[nH]1 observed_result=1.01
compound=[2H]c1[nH]c2c([2H])c([2H])c([2H])c([2H])c2c1CC(=O)O observed_result=4.22
compound="NC(N)=NC(CC(=O)O)C(=O)O (stereo not drawn)" observed_result=0.802
compound=O=C(O)CC=CCC(=O)O observed_result=2.67
compound=Cc1ncc(CO)c(CO)c1O observed_result=1.54

(P) O=C1CC(C(=O)O)NC(=O)N1 (stereo not drawn)
(Q) CCCCCCCC(=O)NCC(=O)O
q: Given P and Q , report the one with the higher recorded LC retention time. Label of pick, please.
a: Q
